- assayed_target: H^+ K^+ ATPase (Sus scrofa)
- Construct: Lyophilised gastric vesicles were prepared from pig fundic mucosa
- Sequence (P19156 2-1034 limits assumed): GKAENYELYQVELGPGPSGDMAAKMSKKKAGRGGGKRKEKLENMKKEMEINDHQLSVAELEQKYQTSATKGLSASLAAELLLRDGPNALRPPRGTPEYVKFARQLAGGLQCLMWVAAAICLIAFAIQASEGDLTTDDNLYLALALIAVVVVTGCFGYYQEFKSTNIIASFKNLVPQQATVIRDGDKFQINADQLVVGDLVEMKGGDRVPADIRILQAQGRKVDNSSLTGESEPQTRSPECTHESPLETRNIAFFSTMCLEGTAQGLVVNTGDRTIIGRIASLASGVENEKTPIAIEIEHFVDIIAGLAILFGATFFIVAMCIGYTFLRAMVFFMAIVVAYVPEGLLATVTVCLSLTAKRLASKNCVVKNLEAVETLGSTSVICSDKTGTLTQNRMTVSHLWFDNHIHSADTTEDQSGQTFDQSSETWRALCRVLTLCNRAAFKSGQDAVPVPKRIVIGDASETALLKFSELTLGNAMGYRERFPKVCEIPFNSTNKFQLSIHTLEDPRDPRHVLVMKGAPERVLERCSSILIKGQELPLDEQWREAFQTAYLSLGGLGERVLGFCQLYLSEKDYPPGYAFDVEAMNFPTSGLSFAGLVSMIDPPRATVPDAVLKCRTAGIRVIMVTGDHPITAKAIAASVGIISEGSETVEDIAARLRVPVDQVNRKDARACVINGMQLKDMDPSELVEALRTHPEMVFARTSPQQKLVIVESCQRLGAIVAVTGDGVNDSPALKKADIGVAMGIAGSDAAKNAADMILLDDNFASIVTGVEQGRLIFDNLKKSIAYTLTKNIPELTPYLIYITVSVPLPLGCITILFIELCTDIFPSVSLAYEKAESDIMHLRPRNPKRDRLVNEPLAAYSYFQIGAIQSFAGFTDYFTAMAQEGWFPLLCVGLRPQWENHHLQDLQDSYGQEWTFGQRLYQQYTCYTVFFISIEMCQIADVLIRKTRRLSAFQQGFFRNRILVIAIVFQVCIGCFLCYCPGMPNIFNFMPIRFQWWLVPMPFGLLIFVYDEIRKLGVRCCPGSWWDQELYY
- Sequence (P18434 whole entry partner): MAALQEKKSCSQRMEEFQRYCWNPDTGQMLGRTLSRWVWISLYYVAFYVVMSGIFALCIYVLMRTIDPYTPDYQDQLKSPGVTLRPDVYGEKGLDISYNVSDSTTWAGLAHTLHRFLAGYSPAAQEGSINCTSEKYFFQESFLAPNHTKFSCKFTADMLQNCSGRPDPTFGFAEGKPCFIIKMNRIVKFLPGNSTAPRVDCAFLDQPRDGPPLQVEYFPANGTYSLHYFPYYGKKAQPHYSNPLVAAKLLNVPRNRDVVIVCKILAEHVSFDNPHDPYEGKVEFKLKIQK
- experiment_notes: K^+ -stimulated ATPase activity in lyophilised gastric vesicles
- condition_set: lyophilised gastric vesicles from pig fundic mucosa, 37° C., pH 7.0, 30 minutes
measured_attribute: IC50 (µM)
Quick note: give the figure in µM, leave out the unit.

Worked examples follow.
CCCC(=O)c1cnc2c(OC)cccc2c1Nc1ccccc1CO; 12
CCCC(=O)c1cnc2c(OC)cccc2c1Nc1c(C)cc2c(c1C)OCO2; 2.7
CCCC(=O)c1cnc2c(OC)cccc2c1Nc1ccc2c(c1)OCO2; 3.6

// sample CCCC(=O)c1cnc2c(OC)cccc2c1Nc1ccccc1COC , its IC50 was 5.5

// sample CCCC(=O)c1cnc2c(OC)cccc2c1Nc1cc(CO)ccc1C , its IC50 was 10.2

// sample CCCC(=O)c1cnc2c(OC)cccc2c1Nc1cccc(CO)c1C , its IC50 was 6

###

Parameter % inhibition of pentagastrin stimulated gastric acid secretion: see the listing below.
- System: pentagastrin stimulated gastric acid secretion
- experiment_notes: Rat Lumen Perfused Stomach (pentagastrin stimulated gastric acid secretion)
- Type: in vivo
- condition_set: i.v. administration, 10 μmole/kg
Quick note: give the figure in %, leave out the unit.

Worked examples follow.
CCCC(=O)c1cnc2c(OC)cccc2c1Nc1ccc(CO)cc1; 51
CCCC(=O)c1cnc2c(OC)cccc2c1Nc1ccccc1COC; 43
CCCC(=O)c1cnc2c(OC)cccc2c1Nc1cc(CO)ccc1C; 25

// sample CCCC(=O)c1cnc2c(OC)cccc2c1Nc1ccccc1CO , its % inhibition of pentagastrin stimulated gastric acid secretion was 33

// sample CCCC(=O)c1cnc2c(OC)cccc2c1Nc1c(C)cc2c(c1C)OCO2 , its % inhibition of pentagastrin stimulated gastric acid secretion was 44

// sample CCCC(=O)c1cnc2c(OC)cccc2c1Nc1ccc2c(c1)OCO2 , its % inhibition of pentagastrin stimulated gastric acid secretion was 20

Attribution: patent US5082848A
